Entry source: BigSolDB 2.1

# conditions used: in isopropanol, 293.15 K
readout label: solubility (mole fraction)

INSERT INTO assay_data (smiles_representation, reported_value) VALUES
  ('O=C(O)c1c(O)cccc1O', 0.268);

----------
# conditions used: in isopropanol, 308.15 K
readout label: solubility (mole fraction)

INSERT INTO results (smiles_representation, reported_value) VALUES
  ('O=C(O)c1c(O)cccc1O', 0.303);

----------
# conditions used: in isopropanol, 298.15 K
readout label: solubility (mole fraction)

INSERT INTO assay_data (smiles_representation, readout_label, reported_value) VALUES
  ('O=C(O)c1c(O)cccc1O', 'solubility (mole fraction)', 0.28);
